Source: PubChem BioAssay AID624491

- System: D54 ERlucT glycosylation luciferase reporter, luminescence, 24 h
- assay remarks: N-linked glycosylation inhibitors, luciferase reporter, dose response, D54 ERlucT cells, luminescence, cherry-picks (AID 624491);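 note: signal gain reflects blocked N-linked glycosylation of a luciferase reporter; actives raise luciferase signal so AC26 marks activators of the reporter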
AC26 values for the molecules below.

So, "COc1ccc(C)cc1NC(=O)CCCNC(=O)Cn1cnc2sc(C)c(C)c2c1=O" ? Its AC26 was 7.09 µM

GET /value?item= CCC(c1nc2ccccc2c(=O)n1-c1nc2ccccc2s1)N1C(=O)c2ccccc2C1=O (stereo not given) &field=AC26 returns 1.03 µM

Lab book: AC26 of "COc1cc(C(=O)N/N=C/c2ccc3c(c2)c2ccccc2n3C)ccc1O" noted as 4.07 µM

In plain terms, CC1(C(=O)Nc2ccc(Cl)cc2)Cc2c(-c3cccc(C(N)=O)c3)ccnc2O1 (stereo not given) has a documented AC26 of 15.4 µM

The molecule "Cc1cc(NC(=O)CN2C(=O)NC3(CCCCCC3)C2=O)ccc1Br" showed AC26 equal to 1.57 µM
